Here the recorded EC50 is given for each entry.
System: human beta-coronavirus OC43
Assay: microbe, parasite or virus in culture
Type: cell-based
Details: OC43 in HeLa cells, 6 days at 33° C., class symbols; read-out: EC50

Kindly note the recorded EC50 for O=C(NC1CC1)C(=O)C(CC1CC2(CC2)NC1=O)NC(=O)[C@@H]1[C@H]2CCC[C@H]2CN1C(=O)c1cc2c(Cl)cc(Cl)cc2[nH]1 (single isomer, unassigned) [Compound 116A] , which is 0.1 to 1 µM

---
Kindly note the recorded EC50 for COc1cccc2[nH]c(C(=O)N3Cc4ccccc4[C@@H]3C(=O)N[C@@H](C[C@@H]3CCCNC3=O)C(=O)CO)cc12 [Compound 73_2] , which is 10 to 100 µM

Kindly note the recorded EC50 for O=C1NCC[C@H]1C[C@H](NC(=O)[C@@H]1[C@H]2CCC[C@H]2CN1C(=O)c1cc2c([nH]1)C1CCC2C1)C(=O)CO (stereo partly shown) [Compound 157] , which is 0.1 to 1 µM

Kindly note the recorded EC50 for COc1cccc2[nH]c(C(=O)N3Cc4ccccc4[C@H]3C(=O)N[C@@H](C[C@@H]3CCCNC3=O)C(=O)CO)cc12 [Compound 73_1] , which is 0.1 to 1 µM

----------
System: SARS-CoV-2-GHB-03021/2020
Experiment: microbe, parasite or virus in culture
Format: cell-based
Details: Severe acute respiratory syndrome coronavirus 2, Vero C1008, 96 h; read-out: VeroE6 + CP (EC50)
pEC50: −log10 of the molar value.
Here the recorded pEC50 is given for each entry.

In the examples that follow, each entry is paired with its recorded pEC50.
Kindly note the recorded pEC50 for `O=C1NCC[C@H]1C[C@H](NC(=O)[C@@H]1[C@H]2CCC[C@H]2CN1C(=O)c1nc2c(Cl)ccc(Cl)c2[nH]1)C(=O)CO` , which is > 6.00

Kindly note the recorded pEC50 for `O=C1NCC[C@H]1C[C@H](NC(=O)[C@@H]1[C@H]2CCC[C@H]2CN1C(=O)c1cc2c(Cl)cc(C(F)(F)F)cc2[nH]1)C(=O)CO` , which is 5.00 to 6.00

// moving on: another record for pEC50
Kindly note the recorded pEC50 for `COc1cccc2[nH]c(C(=O)N3C[C@H]4[C@@H]([C@H]3C(=O)N[C@@H](C[C@@H]3CCNC3=O)C(=O)CO)C4(C)C)cc12` , which is 5.00 to 6.00

----------
Target: UniProtKB P0DTD1
Experiment: SARS-CoV-2 3CLpro protease assay (duplex, SAMDI-MS)
Assay type: biochemical
Parameters: For the duplex assay, 3CLpro and HRV3C was added
Details: 3CLpro, 30 mins preincubation, class symbols; read-out: SARS-Cov-2 IC50
Here the recorded IC50 is given for each entry.

Kindly note the recorded IC50 for `O=C(NCc1ccccc1)C(=O)[C@H](C[C@@H]1CCNC1=O)NC(=O)[C@@H]1C[C@@H](C2CCCCC2)CN1C(=O)c1cc2ccccc2[nH]1` , which is 200 to 2000 nM

Kindly note the recorded IC50 for `CS(=O)(=O)Oc1cccc2[nH]c(C(=O)N3C[C@@H]4CCC[C@@H]4[C@H]3C(=O)N[C@@H](C[C@@H]3CCNC3=O)C(=O)CO)cc12` , which is 20 to 200 nM

Kindly note the recorded IC50 for COc1cccc2[nH]c(C(=O)N3C[C@@H]4CCC[C@@H]4[C@H]3C(=O)NC(C[C@@H]3CCNC3=O)C(=O)C(=O)NC3CC3)cc12 (stereo partly drawn) , which is < 20 nM

Kindly note the recorded IC50 for `O=C1NCC[C@H]1C[C@H](NC(=O)[C@@H]1[C@H]2CCC[C@H]2CN1C(=O)c1cc2c(Cl)ccc(-c3ccccc3)c2[nH]1)C(=O)CO` , which is 200 to 2000 nM

---
Kindly note the recorded IC50 for `O=C1NCC[C@H]1C[C@H](NC(=O)[C@@H]1[C@H]2CCC[C@H]2CN1C(=O)c1cc2c(Cl)cccc2[nH]1)C(=O)CO` , which is < 20 nM

Kindly note the recorded IC50 for `CC(C)CCCNC(=O)C(=O)[C@H](C[C@@H]1CCNC1=O)NC(=O)[C@@H]1[C@H]2CCC[C@H]2CN1C(=O)c1cc2c(Cl)cc(Cl)cc2[nH]1` , which is 20 to 200 nM

Kindly note the recorded IC50 for `O=C[C@H](C[C@@H]1CCNC1=O)NC(=O)[C@@H]1[C@H]2CCC[C@H]2CN1C(=O)c1cc2ccccc2[nH]1` , which is < 20 nM

Kindly note the recorded IC50 for `COc1cc(Cl)cc2[nH]c(C(=O)N3C[C@@H]4CCC[C@@H]4[C@H]3C(=O)N[C@@H](C[C@@H]3CCNC3=O)C(=O)CO)cc12` , which is < 20 nM

Kindly note the recorded IC50 for `Cc1cccc2[nH]c(C(=O)N3CCC4(CC4)C[C@H]3C(=O)N[C@@H](C[C@@H]3CCNC3=O)C(=O)C(=O)NC3CC3)cc12` , which is 20 to 200 nM

Kindly note the recorded IC50 for `O=C1NCC[C@H]1C[C@H](NC(=O)[C@@H]1[C@H]2CCC[C@H]2CN1C(=O)c1cc2c(Cl)cc(Cl)cc2[nH]1)C(=O)CO` , which is < 20 nM

Kindly note the recorded IC50 for `O=C1NCC[C@H]1C[C@H](NC(=O)[C@@H]1[C@H]2CCC[C@H]2CN1C(=O)c1cc2c([nH]1)CCCC2)C(=O)CO` , which is 20 to 200 nM

Kindly note the recorded IC50 for O=C1NCC[C@H]1C[C@H](NC(=O)[C@@H]1[C@H]2CCC[C@H]2CN1C(=O)c1cc2c([nH]1)C1CCC2C1)C(=O)CO (stereo partly drawn) , which is 20 to 200 nM

----------
Biological target: HRV3C (Human rhinovirus 14, UniProt P03303)
Assay: HRV3C protease assay (duplex, SAMDI-MS)
Assay type: biochemical, HRV
Conditions: HRV3C, 30 mins preincubation, class symbols; read-out: HRV IC50
pIC50: −log10 of the molar value.
reportedEndpoint: pIC50

In the examples that follow, each entry is paired with its recorded pIC50.
Kindly note the recorded pIC50 for COc1cccc2[nH]c(C(=O)N3C[C@]4(C[C@H]3C(=O)NC(C[C@@H]3CCCNC3=O)C(=O)C(=O)NCc3ccccc3)CC4(F)F)cc12 (stereo partly shown) , which is 5.70 to 6.70

Kindly note the recorded pIC50 for `O=C(NCc1ccccc1)C(=O)[C@H](C[C@@H]1CCNC1=O)NC(=O)[C@@H]1C[C@@]2(CN1C(=O)c1cc3ccccc3[nH]1)CC2(F)F` , which is 4.70 to 5.70

---
Kindly note the recorded pIC50 for `O=C1NCC[C@H]1C[C@H](NC(=O)[C@@H]1[C@@H]2[C@H](CN1C(=O)c1cc3c(Cl)cc(Cl)cc3[nH]1)[C@@H]1C=C[C@H]2C1)C(=O)CO` , which is 4.70 to 5.70

Kindly note the recorded pIC50 for COc1cccc2[nH]c(C(=O)N3C[C@@H]4CCC[C@@H]4[C@H]3C(=O)NC(C[C@@H]3CCNC3=O)C(=O)C(=O)NCc3ccccc3)nc12 (stereo partly shown) , which is 4.00 to 4.70

Kindly note the recorded pIC50 for `COc1cccc2[nH]c(C(=O)N3C[C@@H]4CCCC[C@@H]4[C@H]3C(=O)N[C@@H](C[C@@H]3CCCNC3=O)C(=O)CO)cc12` , which is 4.70 to 5.70

Kindly note the recorded pIC50 for `COc1ccc(F)c2[nH]c(C(=O)N3C[C@@H]4CCC[C@@H]4[C@H]3C(=O)N[C@@H](C[C@@H]3CCNC3=O)C(=O)CO)cc12` , which is 5.70 to 6.70

Kindly note the recorded pIC50 for `COc1cccc2[nH]c(C(=O)N3C[C@H]4[C@@H]([C@H]3C(=O)N[C@@H](C[C@@H]3CCCNC3=O)C(=O)C(=O)NC3CC3)C4(C)C)cc12` , which is 5.70 to 6.70

Kindly note the recorded pIC50 for `O=C(NC1CC1)C(=O)[C@H](C[C@@H]1CCNC1=O)NC(=O)[C@@H]1CC2(CCN1C(=O)c1cc3cc(F)ccc3[nH]1)CC2` , which is 4.70 to 5.70

Kindly note the recorded pIC50 for `O=C(NCc1ccccc1)C(=O)[C@H](C[C@@H]1CCNC1=O)NC(=O)[C@@H]1CC2(CCN1C(=O)c1cc3ccccc3[nH]1)CC2` , which is 4.00 to 4.70

Kindly note the recorded pIC50 for `COc1cccc2[nH]c(C(=O)N3C[C@@H]4CCC[C@@H]4[C@H]3C(=O)N[C@@H](C[C@@H]3CCNC3=O)C(=O)C(=O)NC3CCOCC3)cc12` , which is 5.70 to 6.70

----------
System: SARS-CoV-2-GHB-03021/2020
Experiment: microbe, parasite or virus in culture
Type: cell-based
Settings: Severe acute respiratory syndrome coronavirus 2, Vero C1008, 96 h; read-out: VeroE6 + CP (EC50)
pEC50: −log10 of the molar value.
reportedEndpoint: pEC50

Kindly note the recorded pEC50 for O=C(NCc1ccccc1)C(=O)C(C[C@@H]1CCNC1=O)NC(=O)[C@@H]1[C@H]2CC[C@H](C2)N1C(=O)c1cc2ccccc2[nH]1 (stereo partly drawn) [Compound 8] , which is 4.00 to 5.00

Kindly note the recorded pEC50 for O=C(NC1CC1)C(=O)[C@H](C[C@@H]1CCNC1=O)NC(=O)[C@@H]1CC2(CCN1C(=O)c1cc3c(C(F)(F)F)cccc3[nH]1)CC2 [Compound 170] , which is 4.00 to 5.00

// moving on: another record for pEC50
Kindly note the recorded pEC50 for COc1cccc2[nH]c(C(=O)N3C[C@@H]4CCC[C@@H]4[C@H]3C(=O)N[C@@H](C[C@@H]3CCNC3=O)C(=O)C(=O)NCC(F)(F)F)cc12 [Compound 114] , which is 4.00 to 5.00
